Data provenance is patent US7144982B2.

# System: Human red blood cells
# Type: cell-based
# conditions_used: red cells of human, 1 h, 1e-4 M
Ends that are not written are not given here.
readout_name: hemolysis

Please review the following examples before continuing.
KRHLKWKIIVKL-NH2 [SC-5, KRHLKWKIIVKL] | around 70%
VQMKLFKRHLKW-NH2 [SC-3, VQMKLFKRHLKW] | ~10%
KLSVQMKLFKRH-NH2 [SC-2, KLSVQMKLFKRH] | ~15%
LKWKIIVKLNDG-NH2 [SC-6, LKWKIIVKLNDG] | ~15%
ANIKLSVQMKLF-NH2 [SC-1, ANIKLSVQMKLF] | around 70%
KLFKRHLKWKII-NH2 [SC-4, KLFKRHLKWKII] | ~10%
KIIVKLNDGREL-NH2 [SC-7, KIIVKLNDGREL] | ~15%

Given item VKLNDGRELSLD-NH2 [SC-8, VKLNDGRELSLD] , the value recorded as its hemolysis is ~10%
